src = the supplement of paper PMC11780869

# Test system: Bacillus subtilis
# PROTOCOL_NOTES: cleaved RNA product abundance (RNA/gDNA barcode ratio) relative to median wild-type variant (ratio to wild type); higher = more accumulation of the downstream cleavage product
# DETAILS: experiment (reporter, strain, medium): exp 8a: truncated aprE reporter, strain BJT201 with 2% xylose (RNase J1 expressed); cleavage site: glnRA (positions -5 to +31 mutated)
Quick list: cleaved RNA product abundance per entry.

See these solved cases before continuing.
{"columns": ["MACROMOLECULE_SEQUENCE", "cleaved RNA product abundance"],
 "data": [
  ["CGACATGTCCCGCTTCTTTCATTATTCCGTTAGCAACTGTTTTGCTATATACATTTACCATTTAAGAGGAGGAAT", 1.89],
  ["CGACATGTCCCGCTTCTTTCATTAATACTTTAGCAACTGTTTTGCTATATACATTTACCTTTTAAGAGGAGGAAT", 0.611],
  ["CGACATGTCCCGCTTCTTTCATTAATCCGTTAACAACTGTTTTGCTATATACATTTTCCTTTTAAGAGGAGGAAT", 0.0904],
  ["CGACATGTCCCGCTTCTTTCATTAATCCGTAAGCAACTGTTTTGCTATATACATTTAACTTTTAAGAGGAGGAAT", 0.79],
  ["CGACATGTCCCGCTTCTTTCATTAATCCGTTCGCAACTTTTTTGCTATATACATTTACCTTTTAAGAGGAGGAAT", 0.381],
  ["CGACATGTCCCGCTTCTTTCATTAATCCGTTACCAACTGTTTTGCTATATACATTAACCTTTTAAGAGGAGGAAT", 0.238],
  ["CGACATGTCCCGCTTCTTTCATTAATCCGTTAACAACTGTTTTGCTAAATACATTTACCTTTTAAGAGGAGGAAT", 0.202],
  ["CGACATGTCCCGCTTCTTTCATTAATCCGTTAACAACTGTTTGGCTATATACATTTACCTTTTAAGAGGAGGAAT", 0.159],
  ["CGACATGTCCCGCTTCTTTCATTAATCCGTTACCAACTGATTTGCTATATACATTTACCTTTTAAGAGGAGGAAT", 0.205],
  ["CGACATGTCCCGCTTCTTTCATTAATCCTTTAGCAACGGTTTTGCTATATACATTTACCTTTTAAGAGGAGGAAT", 0.7]
]}

Memo: CGACATGTCCCGCTTCTTTCATTAATCCGTTAGAAACTGTTTTGCTATATACATTTACATTTTAAGAGGAGGAAT , reported cleaved RNA product abundance: 0.34

Looking up CGACATGTCCCGCTTCTTTCATTAATCCGTTGGCAACTGTTTTGCTATAAACATTTACCTTTTAAGAGGAGGAAT , I found its cleaved RNA product abundance recorded as 0.509

Looking up CGACATGTCCCGCTTCTTTCATTAATCCGTTATCAACTGTTTTGCTATATACATTGACCTTTTAAGAGGAGGAAT , I see its cleaved RNA product abundance listed as 0.253

Reported cleaved RNA product abundance for CGACATGTCCCGCTTCTTTCATTAATCCGTTAGCAACTGTGTTGCTATATACATTTACATTTTAAGAGGAGGAAT was 0.517

Lookup result for CGACATGTCCCGCTTCTTTCATTACTCCGTTAGCAACTGTTTTGCTATATACAATTACCTTTTAAGAGGAGGAAT ; measured cleaved RNA product abundance: 1.14

Value of cleaved RNA product abundance reported for the sequence CGACATGTCCCGCTTCTTTCATTAATCCGTTCGCAACTGTTTTACTATATACATTTACCTTTTAAGAGGAGGAAT is 0.418

The sequence CGACATGTCCCGCTTCTTTCATTAATCCGTTAGCAACTGTTTTGCCATATACGTTTACCTTTTAAGAGGAGGAAT showed cleaved RNA product abundance equal to 0.0858

For this sequence ( CGACATGTCCCGCTTCTTTCATTATTCCGTTAGCAACGGTTTTGCTATATACATTTACCTTTTAAGAGGAGGAAT ), measured cleaved RNA product abundance is 0.56

The recorded cleaved RNA product abundance for CGACATGTCCCGCTTCTTTCATTAATCCGTTAGCAACTGTTTTGCTAAATAGATTTACCTTTTAAGAGGAGGAAT is 0.884

What the record says about CGACATGTCCCGCTTCTTTCATTAATCCGTTAGCCACTGTTTTGCTATATACAGTTACCTTTTAAGAGGAGGAAT : cleaved RNA product abundance is 0.244

Quick note, cleaved RNA product abundance for CGACATGTCCCGCTTCTTTCATTAATCCGTTAGCAACTGTTTTGCTATATATATTTACTTTTTAAGAGGAGGAAT landed at 1.89

Record CGACATGTCCCGCTTCTTTCATTAATCCGTTAGCAACTTTTTTGCAATATACATTTACCTTTTAAGAGGAGGAAT . Reported cleaved RNA product abundance: 0.494

Per the records, this sequence ( CGACATGTCCCGCTTCTTTCATTAATCCGTTAGCAACTGTTTGGCAATATACATTTACCTTTTAAGAGGAGGAAT ) has cleaved RNA product abundance equal to 0.499

Note to self: cleaved RNA product abundance recorded for CGACATGTCCCGCTTCTTTCATTAATCCGTTAGCAACTGTTAAGCTATATACATTTACCTTTTAAGAGGAGGAAT was 0.279

Per the record, CGACATGTCCCGCTTCTTTCATTATTCCGTGAGCAACTGTTTTTCTATATACATTTACCTTTTAAGAGGAGGAAT has cleaved RNA product abundance of 0.407

Form: sequence = CGACATGTCCCGCTTCTTTCATTAATCCGATAACAACTGTTTTGCTATATACATTTACCTTTTAAGAGGAGGAAT ; cleaved RNA product abundance = 0.201

---

# Tested on: Bacillus subtilis
# PROTOCOL_NOTES: cleaved RNA product abundance (RNA/gDNA barcode ratio) relative to median wild-type variant (ratio to wild type); higher = more accumulation of the downstream cleavage product
# DETAILS: experiment (reporter, strain, medium): exp 4a: truncated aprE reporter, strain BJT201 with 2% xylose (RNase J1 expressed); cleavage site: cggR-gapA (positions -7 to +36 mutated)
Examples of sequences with documented cleaved RNA product abundance follow.
Output spec: single numeric token, no unit.

Recorded cleaved RNA product abundance, per entry:
{"columns": ["MACROMOLECULE_SEQUENCE", "cleaved RNA product abundance"],
 "data": [
  ["ACAGACGAAGGAGCCGCAAAGTAGTTATTAAGGGATGAATAACCCCTCAATATAAATATCTCTCACTTATTTAAA", 0.762],
  ["ACAGACGAAGGAGCCGCAAAGAAGTTCTTAAGGGATGAATAATCTCTCAATATAAATATCTCTCACTTATTTAAA", 0.199],
  ["ACAGACGAAGGAGCCGCAAAGAAGTTACTAACGGATGAATAATCCCTCAATATAAATATCTCTCACTTATTTAAA", 0.162]
]}

Please look at the following sequence next.
Value of cleaved RNA product abundance reported for the sequence ACAGACGAAGGAGCCGCAAATAAGTTATTAAGGGATGAATAGTCCCTCAATATAAATATCTCTCACTTATTTAAA is 0.887

---

sequences and their reported cleaved RNA product abundance
# Tested on: Bacillus subtilis
# PROTOCOL_NOTES: cleaved RNA product abundance (RNA/gDNA barcode ratio) relative to median wild-type variant (ratio to wild type); higher = more accumulation of the downstream cleavage product
# DETAILS: experiment (reporter, strain, medium): exp 2b: truncated aprE reporter, strain BJT200; cleavage site: cggR-gapA (positions -7 to +36 mutated)

{"columns": ["MACROMOLECULE_SEQUENCE", "cleaved RNA product abundance"],
 "data": [
  ["ACAGACGAAGGAGCCGCAACGAAGTTATTAAGGGATGAATAATACCTCAATATAAATATCTCTCACTTATTTAAA", 0.111],
  ["ACAGACGAAGGAGCCGCAAAAAAGTTAATAAGGGATGAATAATCCCTCAATATAAATATCTCTCACTTATTTAAA", 0.335]
]}

Lab book: cleaved RNA product abundance of ACAGACGAAGGAGCCGCAAAGAAGTTATTAAGTGATGAATAATCCCTCAATATACATATCTCTCACTTATTTAAA noted as 0.0962

Value of measured cleaved RNA product abundance for the entry ACAGACGAAGGAGCCGCAAAGAAGTTATTAAGGGAAGAATAATCCCTCATTATAAATATCTCTCACTTATTTAAA : 0.208

Recorded cleaved RNA product abundance (sequence ACAGACGAAGGAGCCGCAAAGAAGTGATTAAGGGATGAATAATCCCTCAATATAAATATCTCTCACTTATTTAAA ): 0.318

cleaved RNA product abundance reported for this sequence ACAGACGAAGGAGCCGCAAAGAAGTTACTAAGGGATGAATAATCCCTCATTATAAATATCTCTCACTTATTTAAA : 0.218

Lookup result for ACAGACGAAGGAGCCGCAAAAAAGTGATTAAGGGATGAATAATCCCTCAATATAAATATCTCTCACTTATTTAAA ; measured cleaved RNA product abundance: 0.276

GET /value?item= ACAGACGAAGGAGCCGCAAAGACGTTATTAAGGGATTAATAATCCCTCAATATAAATATCTCTCACTTATTTAAA &field=cleaved RNA product abundance returns 0.747

So, ACAGACGAAGGAGCCGCAAAGAATTAATTAAGGGATGAATAATCCCTCAATATAAATATCTCTCACTTATTTAAA ? Its cleaved RNA product abundance was 0.257

Data point: ACAGACGAAGGAGCCGCAAAGAAGTTATTACGGGTTGAATAATCCCTCAATATAAATATCTCTCACTTATTTAAA ; cleaved RNA product abundance = 0.087

For record ACAGACGAAGGAGCCGCAAAGAAGTTATTAAGAGATTAATAATCCCTCAATATAAATATCTCTCACTTATTTAAA the listed cleaved RNA product abundance is 0.116
